Tested on: PANC-1 pancreatic cancer cell line (KRAS G12D mutation)
measurement_protocol: Proliferation inhibition measured by CTG (CellTiter Glo), PANC-1
Assay type: cell-based
condition_context: Homo sapiens, Table 2, 120 hours incubation
attribute_measured: pIC50
Quick note: pIC50 means taking -log10 of the concentration in moles per liter.

What does the record list as pIC50 for CN1CCC[C@H]1COc1nc2c(c(N3CCn4cncc4C3)n1)CCN(c1cccc3cccc(Cl)c13)C2 ?
6.71

---

System: AGS gastric cancer cell line (KRAS G12D mutation)
measurement_protocol: Proliferation inhibition measured by CTG (CellTiter Glo), AGS
Assay type: cell-based
condition_context: Table 2; CTG, 120 hours incubation; read-out: IC50 AGS (G12D)
Measured pIC50 accompanies every entry in the list below.
FYI, pIC50 means -log10 of a concentration in mol per litre.

// pIC50 lookup, key: CC1Cn2cncc2CN1c1nc(OC[C@@H]2CCCN2C)nc2c1CCN(c1cccc3cccc(Cl)c13)C2 (some centres unmarked)
7.27

Param item: C=Cc1ncc2n1CCN(c1nc(OC[C@@H]3CCCN3C)nc3c1CCN(c1cccc4ccccc14)C3)C2 [Comparative compound 3′, reference compound]
5.93

Can you handle CN1CCC[C@H]1COc1nc2c(c(N3CCn4cncc4C3)n1)CCN(c1cccc3cccc(Cl)c13)C2 next?
7.04

Next: C=Cc1ncc2n1CCN(c1nc(OC[C@@H]3CCCN3C)nc3c1CCN(c1cccc4cccc(Cl)c14)C3)C2 [Comparative compound 2′, reference compound]
5.83

Proceed to C[C@@H]1Cn2cncc2CN1c1nc(OC[C@@H]2CCCN2C)nc2c1CCN(c1cccc3cccc(Cl)c13)C2
7.62
